Each recorded value in this set is attributed to patent US9718796B2.

// values below are reported IC50
# experimentalTarget: hTLR8 (Homo sapiens, UniProt Q9NR97)
# Construct: host or cells: HEK293 cells stably transfected with hTLR8
# Sequence (Q9NR97 27-1041): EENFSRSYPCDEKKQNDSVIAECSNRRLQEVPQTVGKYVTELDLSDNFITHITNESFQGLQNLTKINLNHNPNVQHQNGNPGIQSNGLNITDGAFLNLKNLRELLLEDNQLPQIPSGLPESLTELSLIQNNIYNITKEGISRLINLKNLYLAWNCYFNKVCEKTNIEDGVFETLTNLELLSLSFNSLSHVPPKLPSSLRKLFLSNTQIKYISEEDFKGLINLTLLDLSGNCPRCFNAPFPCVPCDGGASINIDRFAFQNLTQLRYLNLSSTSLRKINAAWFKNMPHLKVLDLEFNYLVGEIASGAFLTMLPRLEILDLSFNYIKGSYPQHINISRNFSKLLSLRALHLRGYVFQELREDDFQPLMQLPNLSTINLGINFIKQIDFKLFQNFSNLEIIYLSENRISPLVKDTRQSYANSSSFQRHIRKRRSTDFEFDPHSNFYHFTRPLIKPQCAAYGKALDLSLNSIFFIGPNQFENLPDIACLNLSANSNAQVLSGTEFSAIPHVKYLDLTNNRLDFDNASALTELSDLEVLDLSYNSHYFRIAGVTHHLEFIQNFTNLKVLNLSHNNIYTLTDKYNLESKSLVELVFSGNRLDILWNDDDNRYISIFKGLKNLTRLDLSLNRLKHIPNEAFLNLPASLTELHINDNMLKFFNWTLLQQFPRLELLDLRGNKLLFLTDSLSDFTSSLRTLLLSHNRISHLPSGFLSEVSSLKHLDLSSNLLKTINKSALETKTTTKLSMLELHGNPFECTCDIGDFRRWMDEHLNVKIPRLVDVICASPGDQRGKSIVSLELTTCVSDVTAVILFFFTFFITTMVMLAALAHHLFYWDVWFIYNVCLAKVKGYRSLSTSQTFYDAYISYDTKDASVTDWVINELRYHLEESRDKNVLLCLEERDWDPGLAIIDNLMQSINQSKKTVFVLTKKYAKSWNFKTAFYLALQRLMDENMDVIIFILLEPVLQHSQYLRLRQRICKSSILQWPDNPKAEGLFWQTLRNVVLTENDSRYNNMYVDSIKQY
# methodNotes: HEK-293 hTLR8 transfectant antagonist assay (NF-κB driven SEAP reporter)
# Assay type: cell-based
# testContext: hTLR8 reporter cells; TLR8 agonist VTX-378 (Compound A) 0.5 μM; read-out: IC50, nM, vs. VTX-378 0.5 μM

// below: answered molecules
CCCN(CC(N)=O)C(=O)C1=Cc2cc(-c3ccc(NC(=O)OCC)cc3Cl)ccc2N=C(N)C1 [Compound 3336] | < 1000 nM
CCOC(=O)C1=Cc2cc(-c3cccc(OC)c3)ccc2N=C(N)C1 [Compound 3267] | 1000 to 10000 nM
CCOC(=O)C1=Cc2cc(Oc3ccccc3C)ccc2N=C(N)C1 [Compound 3128] | < 1000 nM
CCOC(=O)Nc1ccc(-c2ccc3c(c2)C=C(C(=O)OCC)CC(N)=N3)c(Cl)c1 [Compound 3261] | < 1000 nM
CCOC(=O)C1=Cc2cc(Oc3ccc(OC)cc3)ccc2N=C(N)C1 [Compound 3125] | 1000 to 10000 nM

Query :: Look up IC50: CCOC(=O)C1=Cc2cc(-c3ccc(C(=O)N4CCCC4)cc3)ccc2N=C(NCCO)C1 [Compound 2968]
Result :: 1000 to 10000 nM

Query :: Field entry: CCOC(=O)C1=Cc2cc(Nc3ccccc3)ccc2N=C(N)C1 [Compound 3097]
Result :: < 1000 nM

Query :: Field entry: CCOC(=O)C1=Cc2cc(-c3ccccc3C(C)C)ccc2N=C(N)C1 [Compound 3141]
Result :: < 1000 nM
